# System: Wolbachia pipientis
# testSummary: Anti-Wolbachia Cell-Based Screen
# Format: functional
# Parameters: scale not given: in the data most compounds retested in dose-response had high values
# conditionsUsed: 5 µM
In all, about 48,000 compounds went through this assay and about 13,000 (27%) showed an effect of 50% or more. The list shows a part of the results.
observable: Percent Effect (%)

| compound | unitsText | recordedValue |
| --- | --- | --- |
| O=C(CN1CCSCC1c1ccccc1)N1CCCC1 (centres undefined) | % | -1.528 |
| CN1CC(Oc2ccccc2)=NC(SCC(=O)c2ccccc2)=N1 | % | 31.32 |
| Cc1nc(N(C)C)ncc1C(=O)NCCc1csc(-c2ccncc2)n1 | % | 10.36 |
| CCS(=O)(=O)N1CCC[C@]2(C(=O)N(C)C)CN(c3ccccn3)C[C@@H]2C1.O=C(O)C(F)(F)F | % | -14.88 |
| CN(C)C(=O)N1CCC[C@]2(C(=O)N(C)C)CN(c3ccccn3)C[C@@H]2C1.O=C(O)C(F)(F)F | % | 123.8 |
| CN(C)C(=O)[C@]12CCCN(CC3CC3)C[C@H]1CN(c1ccccn1)C2.O=C(O)C(F)(F)F.O=C(O)C(F)(F)F | % | 89.5 |
| CN1CCOCC12CCN(Cc1nccs1)CC2 | % | 7.326 |
| CCC(=O)N1CCC[C@]2(C(=O)N(C)C)CN(c3ccccn3)C[C@@H]2C1.O=C(O)C(F)(F)F | % | 98.59 |
| NC(=O)c1ccc(NC(=O)N2CCN(c3cccs3)CC2)c(F)c1 | % | -5.895 |

###

# Tested on: Wolbachia pipientis
# testSummary: Anti-Wolbachia Cell-Based Screen
# Assay type: functional
# Parameters: scale not given: in the data most compounds retested in dose-response had high values
# conditionsUsed: 5 µM
Among all 48,000 compounds or so, about 13,000 (27%) showed an effect of 50% or more. This is one part of the list.

| molecule | Percent Effect (%) |
| --- | --- |
| OC(COCc1ccco1)CSc1nnc2ccccn12 (stereo not drawn) | -3.086 |
| CCCN1CCC(c2nc3ccc(-c4ccccc4)cn3n2)CC1.O=C(O)C(F)(F)F | 132.6 |
| COc1cc(NC2CCCNC2)cc(OC)c1 (stereo not drawn) | -9.333 |
| CC1=C[C@@H](CC#N)[C@H](C(C)C)C[C@H]1CC(=O)N1CCN(CCO)CC1 | 2.953 |
| CC(C)(C)OC(=O)NC(C)(C)c1noc(CN2CCCCC2)n1 | 1.243 |
| CC(C)CC(CCO)CNC(=O)N1CC(C)(C)C1(C)C (stereo not drawn) | -21.83 |
| CCCN1CCC(c2nc3ccc(-c4ccncc4)cn3n2)CC1.O=C(O)C(F)(F)F.O=C(O)C(F)(F)F | 100.7 |
| Cc1ncsc1C(=O)NC1CCN(c2ncccc2C#N)CC1 | 3.03 |
| COCC(=O)N1CCc2ccc(=O)n(Cc3csc(C)n3)c2CC1.O=C(O)C(F)(F)F | -6.118 |
| CN(C(=O)CCOc1ccccc1)C1CCN(CC2CCOC2)CC1 (stereo not drawn) | -10.27 |
| Cc1cnc(N2CC[C@@H]3O[C@@H](COCc4ccccn4)CC[C@@H]32)nc1.O=C(O)C(F)(F)F.O=C(O)C(F)(F)F | 7.451 |
| O=C(O)C(F)(F)F.O=C(O)C(F)(F)F.O=C(O)c1c(-c2ccncc2)ncc2c1CCN(C1CCOC1)C2 (stereo not drawn) | -10.9 |
| Cc1nn(CC(=O)O)c2nccc(-c3ccc(F)cc3)c12 | 132.8 |
| O=C(O)Cn1nc(C2CC2)c2c(-c3ccc(F)cc3)ccnc21 | 106.5 |
| N#Cc1cn[nH]c1NCc1cc(I)cc(I)c1O | 96 |
| CCC(C)c1csc(NC(=O)Cc2csc(-c3nnc[nH]3)n2)n1 (stereo not drawn) | -13.2 |
| Nc1nc(CNc2nccc(CCC(F)(F)F)n2)cs1 | 0.6104 |
| Cc1nc(CN2C[C@@H]3CN(C(=O)NC(C)C)C[C@@H]3C2=O)cs1.O=C(O)C(F)(F)F | 4.242 |
| CC(C)NC1CCc2c(ccc(=O)n2CC2CC2)C1.O=C(O)C(F)(F)F (stereo not drawn) | -1.359 |
| Cc1ccc(Nc2ncnc3c2CCN(CC2CCOC2)CC3)cc1.O=C(O)C(F)(F)F (stereo not drawn) | -7.327 |
| COc1ccccc1N1CCCC(Nc2nccnc2C#N)C1 (stereo not drawn) | -6.167 |
| Cc1cc(C(=O)NC2CCN(c3ncccc3C#N)CC2)no1 | -13.19 |
| COCC1CN(Cc2sccc2C)Cc2nnn(CC3CC3)c21.O=C(O)C(F)(F)F (stereo not drawn) | 8.391 |
| Cc1nc(Cn2c3c(ccc2=O)CCN(CC2CC2)CC3)cs1.O=C(O)C(F)(F)F.O=C(O)C(F)(F)F | 7.996 |
| CCCc1cc(NCc2ccc(CO)cc2)n2nccc2n1 | -5.904 |
| O=C(O)C(F)(F)F.c1ccc(-c2ccc3nc(C4CCN(CC5CC5)CC4)nn3c2)cc1 | 21.53 |
| CCCN1CCC(c2nc3ccc(-c4cccc(F)c4)cn3n2)CC1.O=C(O)C(F)(F)F | 109.7 |
| CCc1nccn1CCC(=O)N1CC[C@@H](c2ccc(F)cc2)[C@H](O)C1 | -13.2 |
| N#Cc1cn[nH]c1NCc1cc(Br)ccc1O | 83.36 |
| Cc1cc(C)cc(C(=O)NCCCC2(C3OCCO3)CCOCC2)c1 | 11.75 |
| O=C(Cn1nc(-c2ccc(F)cc2)oc1=O)Nc1ccccc1 | -16.04 |
| Cc1ccc(CN2Cc3nnn(C)c3C(COCC3CC3)C2)o1.O=C(O)C(F)(F)F (stereo not drawn) | 1.722 |
| Cc1ccc(CN2Cc3c(C(=O)N(C)C)nn(C)c3C2)s1.O=C(O)C(F)(F)F | -8.124 |
| O=C(O)C(F)(F)F.O=C(O)c1c(NC2CCC2)ncc2c1CCN(C1CCOC1)C2 (stereo not drawn) | -12.61 |
| Cc1ccc(CN2Cc3nnn(C)c3C(COCC3CC3)C2)s1.O=C(O)C(F)(F)F (stereo not drawn) | 100.2 |
| CCC(=O)N1CC[C@@H](c2ccc3ccccc3c2)[C@H](O)C1 | -8.5 |
| N#Cc1cccnc1N1CCC(Nc2ccccc2)C1 (stereo not drawn) | 96.82 |
| N#Cc1cn[nH]c1NCc1cc(Cl)cc(Cl)c1O | 77.61 |
| COc1ccccc1-c1cc(C(F)(F)F)c2c(C)nn(CC(=O)O)c2n1 | -3.37 |
| COc1cc(NC2CCCN(c3ncccc3C#N)C2)cc(OC)c1 (stereo not drawn) | 118.7 |
| CC(C)(O)c1cn(C2CCN(C(=O)CCC3CCCC3)CC2)nn1 | 7.362 |
| N#Cc1cc2c(=O)n(CC(O)C(F)(F)F)ccc2[nH]c1=O (stereo not drawn) | -28.05 |
| Cc1ccc(CN2Cc3nnn(C)c3C(COCC(=O)N(C)C)C2)s1.O=C(O)C(F)(F)F (stereo not drawn) | 83.68 |

###

// reported Percent Effect per item
# Tested on: Wolbachia pipientis
# testSummary: Anti-Wolbachia Cell-Based Screen
# Format: functional
# Design: scale not given: in the data most compounds retested in dose-response had high values
# conditionsUsed: 5 µM
Screen size: about 48,000 compounds; about 13,000 (27%) showed an effect of 50% or more. Some of the results follow.

| compound | targetDesc | Percent Effect / % |
| --- | --- | --- |
| Cc1cc(C)n(C2CCCN(C(=O)c3ccnc(N(C)C)c3)C2)n1 (stereo not drawn) | Wolbachia pipientis | -18.09 |
| Cc1cc(C)n(C2CCCN(C(=O)c3cnc4onc(C)c4c3)C2)n1 (stereo not drawn) | Wolbachia pipientis | 3.729 |
| CCN1CC(C(=O)N2CCN(c3nsc4ccccc34)CC2)CCC1=O (stereo not drawn) | Wolbachia pipientis | 116.3 |
| CNC(=O)c1ccc(C(=O)N2CCCC(n3nc(C)cc3C)C2)cn1 (stereo not drawn) | Wolbachia pipientis | 97.01 |
| CCCn1nccc1S(=O)(=O)N1CCC2(CCCN(C(C)C)C2=O)C1 (stereo not drawn) | Wolbachia pipientis | 7.399 |
| Cc1cc(C)n(C2CCCN(C(=O)c3ccc(N(C)C)nc3)C2)n1 (stereo not drawn) | Wolbachia pipientis | 99.92 |
| O=C(C1CCCN(c2nc3ccccc3cc2CO)C1)N1CCCC1 (stereo not drawn) | Wolbachia pipientis | 10.01 |
| Cn1nc(C(=O)N2CCOCC2)c2c1CN(CC1CCC1)C2 | Wolbachia pipientis | 98 |
| CN1CCCC(C(=O)N2CCC(Oc3ccccn3)CC2)C1 (stereo not drawn) | Wolbachia pipientis | -2.88 |
| CCn1ccnc1CN1CCN(Cc2ccc(C)o2)[C@@H]2CS(=O)(=O)C[C@@H]21 | Wolbachia pipientis | 98.63 |
| NC(=O)N1CCCC(C(=O)N2CCN(c3nsc4ccccc34)CC2)C1 (stereo not drawn) | Wolbachia pipientis | 111.8 |
| Cc1cc(CNc2ccc(C(F)(F)F)cc2)no1 | Wolbachia pipientis | 98.51 |
| Cc1cc(C(=O)NC2(C#N)CCCC2)c(C)n1-c1cccnc1 | Wolbachia pipientis | -8.526 |
| CC(CCN(C)C)NC(=O)c1cccc(C(F)(F)F)c1F (stereo not drawn) | Wolbachia pipientis | 5.139 |
| CC(=O)c1cccc(OCCCC(=O)N(C)CCC(F)(F)F)c1 | Wolbachia pipientis | 2.017 |
| CCOc1ccc(C(F)(F)F)cc1NCc1cc(C)on1 | Wolbachia pipientis | -4.345 |
| CC(C)N1CCCC(C(=O)N2CCc3c(nc(CC4CC4)[nH]c3=O)C2)C1 (stereo not drawn) | Wolbachia pipientis | 6.947 |
| Cn1nc(C(=O)N2CCOCC2)c2c1CN(CC1CC1)C2.O=C(O)C(F)(F)F.O=C(O)C(F)(F)F | Wolbachia pipientis | 102.2 |
| CC(C)CCN1Cc2c(C(=O)N3CCCC3)nn(C)c2C1.O=C(O)C(F)(F)F | Wolbachia pipientis | 4.332 |
| CCN1CC(C(=O)N2CCN(c3cnn(C)c(=O)c3)CC2)CCC1=O (stereo not drawn) | Wolbachia pipientis | 2.003 |
| CCN1CC(C(=O)N2CC(Oc3ccccc3Cl)C2)CCC1=O (stereo not drawn) | Wolbachia pipientis | -27.16 |
| CC(O)CN1CCN(C(=O)CN(C)c2ccc(Cl)cn2)CC1 (stereo not drawn) | Wolbachia pipientis | -12.66 |
| CC(C)(C)[S+]([O-])CCNC(=O)c1csc(NC2CC2)n1 (stereo not drawn) | Wolbachia pipientis | 7.627 |
